Give CC50 at 24 h for every item shown.
- ASSAY COMMENT: in vitro
- CONDITIONS: human
Starred links: 1 amine or outer side, 2 acyl side, 3 side chain; linkers in the order of their positions; H or OH if unused. Positions of bridges follow the written chain, without caps; N, C: chain ends. Non-standard residues stand in square brackets, D forms with d. Residues, ends and D or L forms follow the SMILES beside them. *: point of attachment. Isonicotinoyl(2-Ph) = O=C(c1ccnc(-c2ccccc2)c1)*; Benzoyl(4-OPh) = O=C(c1ccc(Oc2ccccc2)cc1)*; Benzoyl(4-Ph) = O=C(c1ccc(-c2ccccc2)cc1)*; Decanoyl(3R-OH) = CCCCCCC[C@@H](O)CC(=O)*; Butanoyl(4-OPh) = O=C(CCCOc1ccccc1)*; azaDab = NCCN(N[*:1])C(=O)[*:2]; dOrn = NCCC[C@@H](N)C(=O)O; dDab = NCC[C@@H](N)C(=O)O; X2 = CCC(C)CCC(O)CC(=O)*; Dab = NCC[C@H](N)C(=O)O; X5 = O=C(CCCCCCCO)*

Entry CCCCCCC[C@@H](O)CC(=O)N[C@H](CCN)C(=O)N[C@H]1CCNC(=O)[C@H](CC(C)C)NC(=O)[C@H](CCN)NC(=O)[C@H](CCN)NC(=O)[C@@H](CC(C)C)NC(=O)[C@H](Cc2ccccc2)NC(=O)[C@H](CCN)NC1=O [compound 8640] ({Decanoyl(3R-OH)}-[dDab][Dab][Dab]F[dL][Dab][Dab]L; lactam 2-C) — recorded CC50 at 24 h = ≥ 300 µM

Entry CC(C)C[C@@H]1NC(=O)[C@H](CCN)NC(=O)[C@H](CCN)NC(=O)[C@H](Cc2ccccc2)NC(=O)[C@@H](CC(C)C)NC(=O)[C@H](CCN)NC(=O)[C@@H](NC(=O)[C@@H](CCN)NC(=O)c2ccc(-c3ccccc3)cc2)CCNC1=O [compound 6518] ({Benzoyl(4-Ph)}-[dDab][Dab][Dab][dL]F[Dab][Dab]L; lactam 2-C) — recorded CC50 at 24 h = ≥ 300 µM

Entry CCCCCCC[C@@H](O)CC(=O)N[C@@H](CCN)C(=O)N[C@@H]1CCNC(=O)[C@H](CC(C)C)NC(=O)[C@H](CCN)NC(=O)[C@H](CCN)NC(=O)[C@H](C)NC(=O)[C@@H](Cc2ccccc2)NC(=O)[C@H](CCN)NC1=O [compound 6660] ({Decanoyl(3R-OH)}-[Dab][dDab][Dab][dF]A[Dab][Dab]L; lactam 2-C) — recorded CC50 at 24 h = > 300 µM

Entry CCC(C)CCC(O)CC(=O)N[C@H](CCN)C(=O)N[C@H]1CCNC(=O)[C@H](CC(C)C)NC(=O)[C@H](CCN)NC(=O)[C@H](CCN)NC(=O)[C@H](Cc2ccccc2)NC(=O)[C@H](CC(C)C)NC(=O)[C@H](CCN)NC1=O (stereo partly shown) [compound 6371] (X2-[dDab][Dab][Dab]LF[Dab][Dab]L; lactam 2-C) — recorded CC50 at 24 h = > 300 µM

Entry CC(C)C[C@@H]1NC(=O)[C@H](CCN)NC(=O)[C@H](CCN)NC(=O)[C@H](CC(C)C)NC(=O)[C@@H](Cc2ccccc2)NC(=O)[C@H](CCN)NC(=O)[C@@H](NC(=O)[C@@H](CCN)NC(=O)c2ccnc(-c3ccccc3)c2)CCNC1=O [compound 6525] ({Isonicotinoyl(2-Ph)}-[dDab][Dab][Dab][dF]L[Dab][Dab]L; lactam 2-C) — recorded CC50 at 24 h = > 300 µM

Entry CCCCCCC[C@@H](O)CC(=O)N[C@H](CCCN)C(=O)N[C@H]1CCNC(=O)[C@H](CC(C)C)NC(=O)[C@H](CCN)NC(=O)[C@H](CCN)NC(=O)[C@H](Cc2ccccc2)NC(=O)[C@@H](CC(C)C)NC(=O)[C@H](CCN)NC1=O [compound 6428] ({Decanoyl(3R-OH)}-[dOrn][Dab][Dab][dL]F[Dab][Dab]L; lactam 2-C) — recorded CC50 at 24 h = > 300 µM

Entry CC(C)C[C@@H]1NC(=O)[C@H](CCN)NC(=O)[C@H](CCN)NC(=O)[C@H](Cc2ccccc2)NC(=O)[C@@H](CC(C)C)NC(=O)[C@H](CCN)NC(=O)[C@@H](NC(=O)[C@@H](CCN)NC(=O)c2ccc(Oc3ccccc3)cc2)CCNC1=O [compound 6519] ({Benzoyl(4-OPh)}-[dDab][Dab][Dab][dL]F[Dab][Dab]L; lactam 2-C) — recorded CC50 at 24 h = > 300 µM

Entry CCCCCCC[C@@H](O)CC(=O)N[C@H](CCN)C(=O)N[C@H]1CCNC(=O)[C@H](CC(C)C)NC(=O)N(CCN)NC(=O)[C@H](CCN)NC(=O)[C@H](CC(C)C)NC(=O)[C@@H](Cc2ccccc2)NC(=O)[C@H](CCN)NC1=O [compound 8782] ({Decanoyl(3R-OH)}-[dDab][Dab][Dab][dF]L[Dab][azaDab]L; lactam 2-C) — recorded CC50 at 24 h = > 300 µM

Entry CC(C)C[C@@H]1NC(=O)[C@H](CCN)NC(=O)[C@H](CCN)NC(=O)[C@H](CC(C)C)NC(=O)[C@@H](Cc2ccccc2)NC(=O)[C@H](CCN)NC(=O)[C@@H](NC(=O)[C@@H](CCN)NC(=O)CCCOc2ccccc2)CCNC1=O [compound 6529] ({Butanoyl(4-OPh)}-[dDab][Dab][Dab][dF]L[Dab][Dab]L; lactam 2-C) — recorded CC50 at 24 h = > 300 µM

Entry CC(C)C[C@@H]1NC(=O)[C@H](CCN)NC(=O)[C@H](CCN)NC(=O)[C@H](CC(C)C)NC(=O)[C@@H](Cc2ccccc2)NC(=O)[C@H](CCN)NC(=O)[C@@H](NC(=O)[C@@H](CCN)NC(=O)CCCCCCCO)CCNC1=O [compound 6522] (X5-[dDab][Dab][Dab][dF]L[Dab][Dab]L; lactam 2-C) — recorded CC50 at 24 h = > 300 µM

###

Give CC50 at 24 h for every item shown.
- ASSAY COMMENT: in vitro
- CONDITIONS: human
Positions of bridges follow the written chain, without caps; N, C: chain ends. Non-standard residues stand in square brackets, D forms with d. Residues, ends and D or L forms follow the SMILES beside them. *: point of attachment. Benzoyl(4-OPh) = O=C(c1ccc(Oc2ccccc2)cc1)*; Decanoyl(3R-OH) = CCCCCCC[C@@H](O)CC(=O)*; dBip = N[C@H](Cc1ccc(-c2ccccc2)cc1)C(=O)O; X7 = CCC(C)CCCCC(O)CC(=O)*; dDab = NCC[C@@H](N)C(=O)O; Dab = NCC[C@H](N)C(=O)O; X5 = O=C(CCCCCCCO)*
// units = µM; emit number, no label

Entry CCCCCCC[C@@H](O)CC(=O)N[C@H](CCN)C(=O)N[C@H]1CCNC(=O)[C@H](CC(C)C)NC(=O)[C@H](CCN)NC(=O)[C@H](CCN)NC(=O)[C@H](C)NC(=O)[C@@H](Cc2ccccc2)NC(=O)[C@H](CCN)NC1=O [compound 4946] ({Decanoyl(3R-OH)}-[dDab][Dab][Dab][dF]A[Dab][Dab]L; lactam 2-C) — recorded CC50 at 24 h = 107

Entry CCCCCCC[C@@H](O)CC(=O)N[C@H](CCN)C(=O)N[C@H]1CCNC(=O)[C@H]([C@@H](C)O)NC(=O)[C@H](CCN)NC(=O)[C@H](CCN)NC(=O)[C@H](CC(C)C)NC(=O)[C@@H](Cc2ccc(-c3ccccc3)cc2)NC(=O)[C@H](CCN)NC1=O [compound 5608] ({Decanoyl(3R-OH)}-[dDab][Dab][Dab][dBip]L[Dab][Dab]T; lactam 2-C) — recorded CC50 at 24 h = 37

Entry CC(C)C[C@@H]1NC(=O)[C@H](CCN)NC(=O)[C@H](CCN)NC(=O)[C@H](Cc2ccccc2)NC(=O)[C@@H](CC(C)C)NC(=O)[C@H](CCN)NC(=O)[C@@H](NC(=O)[C@@H](CCN)NC(=O)c2ccc(Oc3ccccc3)cc2)CCNC1=O [compound 6519] ({Benzoyl(4-OPh)}-[dDab][Dab][Dab][dL]F[Dab][Dab]L; lactam 2-C) — recorded CC50 at 24 h = 163

Entry CCC(C)CCCCC(O)CC(=O)N[C@@H](CCN)C(=O)N[C@H]1CCNC(=O)[C@H](CC(C)C)NC(=O)[C@H](CCN)NC(=O)[C@H](CCN)NC(=O)[C@H](CC(C)C)NC(=O)[C@@H](Cc2ccccc2)NC(=O)[C@H](CCN)NC1=O (stereo partly drawn) [compound 5567] (X7-[Dab][Dab][Dab][dF]L[Dab][Dab]L; lactam 2-C) — recorded CC50 at 24 h = 54

Entry CC(C)C[C@@H]1NC(=O)[C@H](CCN)NC(=O)[C@H](CCN)NC(=O)[C@H](CC(C)C)NC(=O)[C@@H](Cc2ccccc2)NC(=O)[C@H](CCN)NC(=O)[C@@H](NC(=O)[C@@H](CCN)NC(=O)CCCCCCCO)CCNC1=O [compound 6522] (X5-[dDab][Dab][Dab][dF]L[Dab][Dab]L; lactam 2-C) — recorded CC50 at 24 h = 208

Entry CCCCCCC[C@@H](O)CC(=O)N[C@H](CCN)C(=O)N[C@H]1CCNC(=O)[C@H](CC(C)C)NC(=O)[C@H](CCN)NC(=O)[C@H](CCN)NC(=O)[C@H](CC(C)C)NC(=O)[C@@H](C)NC(=O)[C@H](CCN)NC1=O [compound 5006] ({Decanoyl(3R-OH)}-[dDab][Dab][Dab][dA]L[Dab][Dab]L; lactam 2-C) — recorded CC50 at 24 h = 277

Cited source: patent US11279733B2
